All values here come from the nanobody polyreactivity screen of Harvey et al. (2022).

- Procedure Details: yeast display, Sf9 membrane polyspecificity reagent, FACS + sequencing; frameworks hold sequencing errors
Observed Property: polyreactivity (PSR sort gate)

Worked examples follow.
QVQLVESGGGLVQAGGSLRLSCAASGRTFLWNAMGWSRPAPGKERELVAAITSGGRTTYADSVKGRFTISRDNAKNTVYLQMNSLKPEDTAVYYCAAVSANQDFDYWGQGTQVTVSS | high polyreactivity
QVQLVESGGGLVQAGGSLRLSCAASAFILASYPMGWNRQAPGKERELVAAITKRGGSTYYADSVKGRFTISRDNAKNTVFLQMNSLKPEDTAVYFCATYSSTVLPRWKYYYWGQGTQVPVSS | high polyreactivity
QVHLVESGGGLVQAGGSLRLSCPASGSTFYDNAMGCYRQPPGKERELVARIRWSGVRTYYADSVKGRFTISRDNAKNTVYLQMNSLKPEDTAVYYCAAGRPSRHWWSLDYYFWGQGTQVTVSS | low polyreactivity
QVQIVESGGGLVQAGGSLRVSCAPSGNISYSYDMGWYRQAPGKERELVASITESGGSTYYADSVKGRFTISRDNAKNTVYFQMNILKPEDTAVYYCYWGHGTQVTVSS | low polyreactivity
QVQLVESGGGLVQAGGSLRLSCAASGRIFQQNGMGWYRQAPGKERELVAGINSGVGTNYADSVKGRFTISRDNAKNTVYLQRNSLKPEDTAVYYCAKSQPSYSGDRDYWGPGTQVTVSS | low polyreactivity
QVQLVESGGGLVQAGGSLRLSCAASGSIFTSYAMGWYRQAPGKERELVAGISWSVGGITYYADSVKGRFTISRDNAKNTVYLQMNSLKPEDTAVYYCAADPEGGLGTIPEDYWGQGTQVTVSS | low polyreactivity

Let's switch to this sequence now.
[Q] Output polyreactivity (PSR sort gate) of QVQLVESGGGLVQAGGSLRISCAASGSIFTFYAMGRYRQAPGKERELVATITWLGGSTYADSVKGRFTISRDNAKNTVYLQMNSLKPEDTAVYYCAKYLGRQHEKDLGGMNYWGQGTQVTVSS
[A] high polyreactivity
